# Tested on: OVCAR-8 ovarian
# procedure_text: NCI-60 one-dose screen, 48 h
# condition_context: 10 µM unless noted
# Description: Growth inhibition of the OVCAR-8 human tumor cell line is measured as a screen for anti-cancer activity. Cells are grown in 96 well plates and exposed to the test compound for 48 hours. Compounds are tested at a single concentration, which is 10^-5 M for most compounds. The reported endpoint is percent growth (GI% or GIPRCNT), where numbers from 0 - 100% represent growth inhibition, and numbers from -100% - 0 represent cell death. For example, a value of 40 represents 60% growth inhibition. […]
The panel holds about 83,000 compounds, 20% with a hit somewhere; the sample as a whole holds those more often. Calls of active or inactive are those of the source. Rule for the calls: active = growth percent below 10; inactive = the rest.
Please answer using one outcome listed in active, inactive

Hey, what did the test say about O=C1Nc2c(ccc(Cl)c2Cl)/C1=C\c1ccc(C(F)(F)F)cc1 ?
inactive

Hey, what did the test say about Cc1cc(C)nc(SC2=C(Nc3ccc(C)c(Cl)c3)C(=O)N(Cc3ccccc3)C2=O)n1 ?
inactive

Hey, what did the test say about C=CCSSc1ncnc2c1ncn2C1OC(CO)C(O)C1O (centres undefined) ?
inactive

Hey, what did the test say about CCCCCCCCCCCCC[N+](C)(C)Cc1ccccc1 ?
active

Hey, what did the test say about COc1ccc(/C=C/c2nc(-c3n[nH]c(=O)n3-c3ccccc3)c3ccccc3n2)cc1 ?
inactive

Hey, what did the test say about COc1ccccc1Nc1nc(-c2cc3cccc(C(F)(F)F)c3oc2=O)cs1 ?
active

Hey, what did the test say about COc1ccc(-c2n[nH]nc2-c2csc3ccccc23)cc1OC ?
inactive

Hey, what did the test say about N#Cc1c(N)n(CCNC(=O)c2ccccc2)c2nc3ccccc3nc12 ?
inactive

Hey, what did the test say about c1ccc(-c2c(-c3ccccc3)[n+](Cc3ccc4ccccc4c3)c(-c3ccc(-c4nc5ccccc5s4)cc3)n2Cc2ccc3ccccc3c2)cc1 ?
active

Hey, what did the test say about C[n+]1ccccc1/C=C/c1ccc2cccc(O)c2n1 ?
inactive

Hey, what did the test say about CC(C)c1c(C(=O)c2ccccc2)c(-c2ccccc2)c(-c2ccc(F)cc2)n1CC[C@@H](O)C[C@@H](O)CC(=O)O ?
inactive

Hey, what did the test say about Cc1cc(Nc2ccc(C)c(Cl)c2)n2nc(C(F)(F)F)nc2n1 ?
inactive

Hey, what did the test say about CC1=C[C@H]2c3c(c(O)c(O)c4oc(-c5ccccc5)cc(=O)c34)[C@H](c3cc(O)c(O)c4oc(-c5ccccc5)cc(=O)c34)[C@H]2C(C)(C)C1 ?
active

Hey, what did the test say about CCN(CC)c1ccc(-c2cc(-c3cc(OC)c(OC)c(OC)c3)nc(N3CCOCC3)c2C#N)cc1 ?
active

---

I'd appreciate it if you could supply growth values for the items below.
# Test system: UACC-257 melanoma
# procedure_text: NCI-60 one-dose screen, 48 h (100 = growth as untreated, 0 = no growth, -100 = all killed)
# condition_context: 10 µM unless noted
This is part of a sample that, as a whole, favours compounds with a hit. Of some 83,000 tested, about 20% had one in any assay. Activity calls are given as the source filed them. The calls were made as follows: active = growth percent below 10; inactive = the rest.

Assign growth to the following record: Cn1cc(-c2nonc2-c2c[nH]c3ccc(F)cc23)c2cccnc21
89.9% (inactive)

Assign growth to the following record: O=C(/C=C/c1cccc([N+](=O)[O-])c1)c1ccc(O)c(CN2CCN(c3cc4c(cc3F)c(=O)c(C(=O)O)cn4C3CC3)CC2)c1
63.1% (inactive)

Assign growth to the following record: Cc1cc(C)nc(SC2=C(Nc3ccc(C)c(Cl)c3)C(=O)N(Cc3ccccc3)C2=O)n1
67.4% [30 µM] (inactive)

Assign growth to the following record: CCCCn1c(-c2ccc(C(=O)O/N=C(\N)c3ccc4c(c3)OCO4)cc2)nc(-c2ccccc2)c1-c1ccccc1
79.9% (inactive)

Assign growth to the following record: CC(C)(CCCN=C(N)Nc1ccc(Cl)cc1)c1ccc(F)cc1
86.6% (inactive)

Assign growth to the following record: Nc1ccn(-c2ccc(Br)cc2)c(=O)n1
127% (inactive)

Assign growth to the following record: CCOC(=O)c1csc(NC(=O)COc2cccc(/C=C3\CSc4ccccc4C3=O)c2)n1
84.5% (inactive)

Assign growth to the following record: COc1ccc(-c2nc3ccc(-c4nc5ccc(N6CCN(c7ccc(F)cc7)CC6)cc5[nH]4)cc3[nH]2)cc1OC
104% (inactive)

Assign growth to the following record: N#Cc1c(-c2ccc(Cl)cc2)nc(N=Nc2c(O)[nH]c3ccc(Cl)cc23)nc1N1CCOCC1
107% (inactive)

---

# Tested on: SW-620 colon
# procedure_text: NCI-60 one-dose screen, 48 h
# condition_context: 10 µM unless noted
This is part of a sample that, as a whole, favours compounds with a hit. Of some 83,000 tested, about 20% had one in any assay. Calls of active or inactive are those of the source. The calls were made as follows: active = growth percent below 10; inactive = the rest.
Please answer using one outcome listed in active, inactive

Hey, what did the test say about CC(C)(C)N1CCC1CN (stereo not given) ?
inactive

Hey, what did the test say about C=C(C)C1CC(O)C2(C)CCCC3C2C1CC(C)C3(C)CC/C(C)=C/C(O)C1CCC(=O)c2c(OC)cc(OC)cc21 (stereo not given) ?
inactive

Hey, what did the test say about CCCOc1cc2ccccc2cc1C(=O)Nc1nc(N)c2c(ccc3nccc32)[nH]1 ?
active

Hey, what did the test say about O=c1cc(CSc2nnc(-c3ccc(F)cc3)o2)c2ccc3ccccc3c2o1 ?
inactive

Hey, what did the test say about COc1ccc(S(=O)(=O)N2CCCCC2)cc1NC(=O)c1[nH]c(C)c2c1CCCCC2=O ?
inactive

Hey, what did the test say about O=C1C=C(OCC=C(Cl)Cl)C(=O)c2ccccc21 ?
inactive

Hey, what did the test say about Cc1[nH]c(-c2ccc3cc[nH]c3c2)c2c1C(=O)CCCC2 ?
inactive

Hey, what did the test say about Oc1cccc(-c2nc(N3CCOCC3)c3c4c(sc3n2)CCCC4)c1 ?
inactive

Hey, what did the test say about COc1cc(-c2nn(C)nc2-c2cc3ccccc3s2)cc(OC)c1OC ?
inactive

Hey, what did the test say about COc1ccc(-c2nc3ccc(-c4nc5ccc(N6CCN(c7ccccc7)CC6)cc5[nH]4)cc3[nH]2)cc1OC ?
active

Hey, what did the test say about CC(=O)Oc1ccc(Cl)cc1CN(C(C)=O)C1CCCCC1 ?
inactive

Hey, what did the test say about CC(=O)OC[C@H]1O[C@H](OC(C)=O)[C@H](NC(=O)/C=C/CCl)[C@@H](OC(C)=O)[C@@H]1OC(C)=O ?
inactive

Hey, what did the test say about CN(C)c1ccc(NC(=O)c2ccc(/C=C/C(=O)c3ncc[nH]3)cc2)cc1 ?
inactive

Hey, what did the test say about CCOC(=O)n1cc(-c2nonc2-c2cn(C)c3ncccc23)c2ccccc21 ?
inactive

Hey, what did the test say about COc1ccc(-c2cc(=O)c3c(OC)c4ccoc4cc3o2)cc1 ?
inactive

Hey, what did the test say about C#CCOc1ccc2ncnc(NCc3cccc(NC(=O)CCl)c3)c2c1 ?
inactive

Hey, what did the test say about Cc1ccc(-c2onc3c(=O)[nH]nc(-c4ccccc4)c23)cc1 ?
inactive

Hey, what did the test say about NC(=NCCCOc1ccc(Cl)cc1)Nc1ccc(C(F)(F)F)cc1 ?
inactive

Hey, what did the test say about CC1=C[C@H]2c3c(c(O)c(O)c4oc5cc(O)ccc5c(=O)c34)[C@H](c3cc(O)c(O)c4oc5cc(O)ccc5c(=O)c34)[C@H]2C(C)(C)C1 ?
inactive

Hey, what did the test say about Cc1cc(N2CCOCC2)nc(NCc2cc(Nc3ccnc4cc(Cl)ccc34)ccc2F)n1 ?
active

---

# Test system: ACHN renal
# procedure_text: NCI-60 one-dose screen, 48 h
# condition_context: 10 µM unless noted
Compounds without any hit were thinned out: in the full panel of roughly 83,000, 20% have a hit. Active and inactive are the calls of the source. How the source made its calls: active means growth percent below 10; inactive means the rest.
Please answer using one outcome listed in active, inactive

Hey, what did the test say about O=S(=O)(Nc1ccc(I)cc1F)c1ccc(-c2cnc(C3CC3)o2)cc1 ?
inactive

Hey, what did the test say about Cc1oc(-c2ccc(Cl)cc2Cl)cc1C(=O)Nc1nccs1 ?
inactive

Hey, what did the test say about Oc1cccc2ccc(N/N=C/c3cc(CN4CCOCC4)c(O)c4ncccc34)nc12 ?
active

Hey, what did the test say about CCCCN(CCCC)CCCn1c(-c2ccccc2)ccc1-c1ccccc1 ?
inactive

Hey, what did the test say about COc1cccc2c1C(=O)c1c(O)c3c(c(O)c1C2=O)C[C@](O)(C(=O)CO)C[C@H]3O[C@@H]1C[C@@H](NC(=O)CCCN(C)C2(c3ccc(F)cc3)CC3CCC2C3)[C@H](O)[C@@H](C)O1 (some centres undefined) ?
active

Hey, what did the test say about O=C(/C=C/c1cccc(Cl)c1)c1ccc(O)c(CN2CCN(c3cc4c(cc3F)c(=O)c(C(=O)O)cn4C3CC3)CC2)c1 ?
inactive

Hey, what did the test say about O=c1c(F)cn(Cc2ccccc2CCl)c(=O)n1Cc1ccccc1CCl ?
active

Hey, what did the test say about FC(F)(F)c1nc2c(NCc3ccc(-c4ccccc4)cc3)cccc2[nH]1 ?
inactive

Hey, what did the test say about Cc1ccc2c(C(C[N+](=O)[O-])c3ccccc3)c(-c3ccccc3)[nH]c2c1 (centres undefined) ?
inactive

Hey, what did the test say about O=C1/C(=C/N2N=C(c3ccc4ccccc4c3)CC2c2ccccc2O)SC(=S)N1c1cccnc1 (centres undefined) ?
inactive

Hey, what did the test say about CN1CCN(CCCOc2cccc3nc(Nc4cc(Cl)cc(Cl)c4)ccc23)CC1 ?
active

Hey, what did the test say about CCCc1cc(=O)n2c(C(=O)Nc3ccc(F)cc3)c(C(=O)Nc3ccc(F)cc3)sc2n1 ?
inactive

Hey, what did the test say about Cc1cc(N2CCCCCC2)nc(NC2CCCC(Nc3ccnc4cc(Cl)ccc34)C2)n1 (centres undefined) ?
active

Hey, what did the test say about COC(=O)c1ccc2oc(NC(=O)c3ccc(Nc4ccc([N+](=O)[O-])cc4C)c([N+](=O)[O-])c3)nc2c1 ?
inactive

Hey, what did the test say about COc1ccc(-c2nc3cc(C(=O)Nc4cc(OC)c(OC)c(OC)c4)ccc3n2C2CCCCC2)cc1 ?
inactive

Hey, what did the test say about Cc1cc2c3ccccc3ccc2[n+]2ccccc12 ?
inactive

Hey, what did the test say about CCn1c(O)c(/C=N/NC(=O)C(C)c2ccc(CC(C)C)cc2)sc1=S (centres undefined) ?
inactive

Hey, what did the test say about C#Cc1cccc(NC(=O)c2ccccc2NC(=O)C=C)c1 ?
inactive

Hey, what did the test say about FC(F)(F)c1[nH]ncc1-c1nc2ccc3n[nH]c(C#Cc4cccnc4)c3c2c2c1CCCC2 ?
inactive
